Measured interaction score by item
Target: T1, 4H3843-bA
T1 chain: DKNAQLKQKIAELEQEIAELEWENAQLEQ
Assay: two-hybrid library CCNG1;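 also: natural log of median RNA to DNA barcode read ratio; higher means stronger binding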

- binder: "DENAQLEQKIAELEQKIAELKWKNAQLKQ [4H1328-bA]"
  interaction score: 1.8
- binder: "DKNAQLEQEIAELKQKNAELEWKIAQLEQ [4H3189-bA]"
  interaction score: -1.24
- binder: "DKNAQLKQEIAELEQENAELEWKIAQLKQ [4H3606-bA]"
  interaction score: -0.812
- binder: "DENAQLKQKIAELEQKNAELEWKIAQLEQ [4H1845-bA]"
  interaction score: -0.572
- binder: "DKNAQLKQKIAELEQEIAELEWENAQLEQ [4H3843-bA]"
  interaction score: -0.878

Note interaction score for the binder shown: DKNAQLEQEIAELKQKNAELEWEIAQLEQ [4H3185-bA]
-0.572

Note interaction score for the binder shown: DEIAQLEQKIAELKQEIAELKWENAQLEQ [4H331-bA]
0.72

Note interaction score for the binder shown: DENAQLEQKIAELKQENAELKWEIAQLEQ [4H1369-bA]
-0.634
